Cited source for all entries: the Kinase Knowledgebase extract (Sharma et al. 2016)

PIK3CA (human) data, read-out pIC50
pIC50: −log10 of the molar value.

| structureAsSmiles | assaySystem | pIC50 |
| --- | --- | --- |
| CCc1ncnc(-c2ccc(C(=O)N3CC[C@@H](N(C)C)C3)c(OC)c2)c1C#Cc1ccc(N)nc1 | PIK3CA (human) | 6.45 |
| CCc1ncnc(-c2ccc(C(=O)N3CCC(N(C)C)CC3)c(C)c2)c1C#Cc1ccc(N)nc1 | PIK3CA (human) | 6.63 |
| CCc1ncnc(-c2ccc(C(=O)N(C)C)c(F)c2)c1C#Cc1ccc(C)nc1 | PIK3CA (human) | 6.65 |
| CCc1ncnc(-c2ccc(C(=O)N3CCOC(C)(C)C3)c(F)c2)c1C#Cc1ccc(N)nc1 | PIK3CA (human) | 6.97 |
| CCc1ncnc(-c2ccc(C(=O)N3CCCN(C)CC3)c(Cl)c2)c1C#Cc1ccc(N)nc1 | PIK3CA (human) | 6.39 |
| CCc1ncnc(-c2cc(F)c(C(=O)N3CCC4(CC3)CC(=O)CO4)c(F)c2)c1C#Cc1ccc(N)nc1 | PIK3CA (human) | 6.84 |
| CCc1ncnc(-c2ccc(C(=O)N3CCN(CCN(C)C)CC3)c(Cl)c2)c1C#Cc1ccc(N)nc1 | PIK3CA (human) | 6.43 |
| CCc1ncnc(-c2ccc(C(=O)N3CCN(C(C)C)CC3)c(Cl)c2)c1C#Cc1ccc(N)nc1 | PIK3CA (human) | 6.61 |
| CCc1ncnc(-c2ccc(C(=O)N3CC[C@@H](O)C3)c(Cl)c2)c1C#Cc1ccc(N)nc1 | PIK3CA (human) | 7.18 |
